// cross-source set; read-out = IC50; system = JNK1α1 (Homo sapiens, UniProt P45983)

Answered examples (5):
[
  {
    "COMPOUND": "C=C(C)c1cnc2[nH]cc(C(=O)c3c(F)ccc(NS(=O)(=O)CCC)c3F)c2c1",
    "PROPERTY": "IC50",
    "VALUE_REPORTED": "≤ 10000 nM"
  },
  {
    "COMPOUND": "Cc1noc(NC(=O)Nc2cccc(C(=O)c3c[nH]c4ncccc34)c2)c1C",
    "PROPERTY": "IC50",
    "VALUE_REPORTED": "≤ 10000 nM"
  },
  {
    "COMPOUND": "COc1ccc(CC(=O)Nc2ccsc2-c2c[nH]cn2)cc1",
    "PROPERTY": "IC50",
    "VALUE_REPORTED": "> 10000 nM"
  },
  {
    "COMPOUND": "CCCS(=O)(=O)Nc1cccc(C(=O)c2c[nH]c3ncc(-c4cccnc4)cc23)c1C",
    "PROPERTY": "IC50",
    "VALUE_REPORTED": "≤ 10000 nM"
  },
  {
    "COMPOUND": "CC1COC(NC(=O)c2cc(-n3ncc4cc(Nc5ccccc5Cl)cnc43)cs2)=N1 (centres unmarked)",
    "PROPERTY": "IC50",
    "VALUE_REPORTED": "200 to 1000 nM"
  }
]

The observed IC50 for Cc1n[nH]cc1-c1cccc2c1ccn2-c1ccnc(N[C@H]2CC[C@H](C(=O)N3CCC(O)CC3)CC2)n1 when tested with JNK1α1 (Homo sapiens, UniProt P45983) stands at 31.7 nM

So the reported IC50 for CCCS(=O)(=O)Nc1cccc(C(=O)c2c[nH]c3ncc(-c4ccccc4)cc23)c1C , on JNK1α1 (Homo sapiens, UniProt P45983), turned out to be ≤ 10000 nM

# lookup: O=C(Cn1c(=O)ccc2cc(Br)ccc21)Nc1scc(Cl)c1-c1nc[nH]n1 on JNK1α1 (Homo sapiens, UniProt P45983), IC50 = < 100 nM
